# system.name: Ephrin type-B receptor 6 (Homo sapiens, UniProt O15197); further: in the data inactive means no Kd found up to 30 µM
# Sequence (O15197 whole entry): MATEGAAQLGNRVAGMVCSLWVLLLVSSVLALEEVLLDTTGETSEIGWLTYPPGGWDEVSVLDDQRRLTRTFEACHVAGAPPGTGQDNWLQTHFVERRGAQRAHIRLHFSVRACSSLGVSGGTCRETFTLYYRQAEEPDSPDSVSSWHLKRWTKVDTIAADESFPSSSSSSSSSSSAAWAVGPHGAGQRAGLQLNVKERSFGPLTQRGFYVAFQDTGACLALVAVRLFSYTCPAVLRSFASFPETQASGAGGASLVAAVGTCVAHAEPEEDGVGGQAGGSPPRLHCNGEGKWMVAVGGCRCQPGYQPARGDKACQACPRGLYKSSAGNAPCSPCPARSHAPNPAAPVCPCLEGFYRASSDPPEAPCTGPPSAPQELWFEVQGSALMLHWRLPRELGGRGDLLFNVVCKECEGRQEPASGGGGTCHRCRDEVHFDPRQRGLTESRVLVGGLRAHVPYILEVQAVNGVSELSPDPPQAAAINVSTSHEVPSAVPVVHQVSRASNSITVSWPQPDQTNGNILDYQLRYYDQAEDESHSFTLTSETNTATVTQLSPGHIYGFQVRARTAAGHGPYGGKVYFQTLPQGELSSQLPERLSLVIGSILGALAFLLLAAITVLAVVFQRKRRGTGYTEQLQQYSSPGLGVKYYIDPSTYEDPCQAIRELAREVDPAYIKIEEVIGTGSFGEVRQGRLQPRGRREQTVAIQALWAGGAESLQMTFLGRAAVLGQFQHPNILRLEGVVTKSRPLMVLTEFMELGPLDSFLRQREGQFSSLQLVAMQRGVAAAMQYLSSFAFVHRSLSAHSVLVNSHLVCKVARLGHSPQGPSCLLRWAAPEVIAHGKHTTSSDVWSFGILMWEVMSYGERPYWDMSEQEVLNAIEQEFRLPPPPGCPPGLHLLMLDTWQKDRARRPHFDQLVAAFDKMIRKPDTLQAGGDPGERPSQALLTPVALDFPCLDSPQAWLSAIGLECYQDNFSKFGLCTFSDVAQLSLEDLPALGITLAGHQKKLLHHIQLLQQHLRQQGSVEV
Calls of active or inactive are those of the source.
# valid calls are yes (1) = active, no (0) = inactive; nothing else

Cc1nc(NC(=O)N2CCC[C@H]2C(N)=O)sc1-c1ccnc(C(C)(C)C(F)(F)F)c1 [ALPELISIB]
no (0)
CC(C)c1cc(CNc2nc(Nc3cc(C4CC4)[nH]n3)cc(N3CCN(C)CC3)n2)on1 [XL-228]
yes (1)
Cc1csc(-c2nnc(Nc3ccc(Oc4ncccc4-c4ccnc(N)n4)cc3)c3ccccc23)c1 [AMG-900]
no (0)
CC(C)(C)c1nc(-c2cccc(NS(=O)(=O)c3c(F)cccc3F)c2F)c(-c2ccnc(N)n2)s1 [DABRAFENIB]
yes (1)
COc1cc2ncnc(Oc3cccc(NC(=O)Nc4cc(C(C)(C)C(F)(F)F)on4)c3)c2cc1OC [CEP-32496]
no (0)
COc1ncc(-c2ccc3nccc(-c4ccnnc4)c3c2)cc1NS(=O)(=O)c1ccc(F)cc1F [OMIPALISIB]
no (0)

Outcome logged for O=C(Cc1ccc(-c2ccc(OCCN3CCOCC3)cc2)cn1)NCc1ccccc1 [TIRBANIBULIN] in this assay:
no (0)

Outcome logged for COc1ccc(S(=O)(=O)N(C(C)=O)c2ccccc2/C=C/c2cc[n+]([O-])cc2)cc1 [HMN-214] in this assay:
no (0)

Outcome logged for CCOc1cc2ncc(C#N)c(Nc3ccc(F)c(Cl)c3)c2cc1NC(=O)/C=C/CN(C)C [PELITINIB] in this assay:
no (0)
